Hey, just so you know, these numbers are from paper PMC9352680.

# measured_on: T1, PUF4 RNA-binding domain (Saccharomyces cerevisiae, UniProt P25339 537-888)
# T1 sequence: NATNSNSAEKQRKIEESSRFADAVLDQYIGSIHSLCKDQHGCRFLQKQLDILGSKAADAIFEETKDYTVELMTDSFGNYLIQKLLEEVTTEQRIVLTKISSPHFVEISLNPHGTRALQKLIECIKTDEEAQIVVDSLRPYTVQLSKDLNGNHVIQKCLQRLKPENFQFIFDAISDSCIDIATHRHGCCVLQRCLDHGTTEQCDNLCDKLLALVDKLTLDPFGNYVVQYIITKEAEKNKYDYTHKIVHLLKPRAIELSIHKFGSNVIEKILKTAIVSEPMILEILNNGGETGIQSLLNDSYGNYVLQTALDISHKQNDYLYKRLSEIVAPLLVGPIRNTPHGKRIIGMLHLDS
# experiment_description: Mg; RNA-MaP; 20 mM Na-HEPES pH 7.4, 30 mM KOAc, 0.75 mM MgCl2, 0.1% Tween-20, 5% glycerol, 0.1 mg/mL BSA, 2 mM DTT; 25 C; 0.0125-409.6 nM protein
# test_context: tags: N-His6-TEV cleaved; C-SNAP kept, Cy3B-labelled; label: tethered on chip by stalled RNA polymerase
measured_parameter: Kd

Sample answers from the record:
Id_ii_S4_P5E.3_K5.2_C5.2_[C-2A]_[T-1A]_H5.2_A5.1_F5.1_T5.2_[T11C]_[A12C] (ssRNA) RNA: UUUGACAACUGAUCGUUCUUUCUAAUAUAUUAUUACCUUCUUUCUCGAUCAGUUGUCUUU :: 896 nM
UCUCUUUGUAGCACAUCUCUU (ssRNA) [Ic_S1_P4E.1_K4.1_C4.1_H4.1_A4.1_[T5G]_[A6C]_[T7A]_F4.1_[T8C]_T4.1] :: 1440 nM
UCUCUUUCCUCGUAUUAUUAUCUCUU (ssRNA) [Ie_S1_P5E.1_K5.1_C5.1_H5.1_[+1CCTC]_A5.1_F5.1_T5.1] :: 1350 nM
ACAAACUGUCUCUAUUAUUAACAAAC (ssRNA) [Ie_S3_P5E.1_K5.1_C5.1_H5.1_[+3CTCT]_A5.1_F5.1_T5.1] :: 366 nM
Ie_S4_P5E.1_K5.1_C5.1_H5.1_[+3TC]_A5.1_F5.1_T5.1 (ssRNA) RNA: UUUGACAACUGAUCGUUCUUUCUUGUUCAUUAUUAUUCUUUCUCGAUCAGUUGUCUUU :: 2.68 nM

Now look at this one.
Q: Recall and state the measured Kd for Ic_S2_P4E.1_K4.1_C4.1_H4.1_A4.1_[T5A]_[A6T]_[T7C]_F4.1_[A9T]_T4.1 (ssRNA) RNA: UUUGAUUAAUAUGAUAUCGUUCUUUCUUGUAAUCUUUUCUUUCUCGAUAUCAUAUUAAUCUUU .
A: 22 nM
